# Tested on: Candida albicans
# assayExplanation: Antifungal activity against Candida albicans clinical isolate after 24 hr by NCCLS broth macrodilution method
# Assay type: functional
testReadout: MIC (µg/mL)
Numbers only, in µg/mL.

Illustrative cases are given below, each with its answer.
compound: CC1CCCC(C)N1CC#CCn1nc(-c2ccccc2)n(-c2ccccc2)c1=O (stereo not given)
scaleUnit: µg/mL
MIC: 25

compound: CC1CCCN(CC#CCn2nc(-c3ccccc3)n(-c3cccc4ccccc34)c2=O)C1 (stereo not given)
scaleUnit: µg/mL
MIC: 50

compound: O=c1n(CC#CCN2CCCCCC2)nc(-c2ccccc2)n1-c1ccccc1
scaleUnit: µg/mL
MIC: 12.5

compound: CC1CCCN(CC#CCn2nc(-c3ccccc3)n(-c3ccccc3)c2=O)C1 (stereo not given)
scaleUnit: µg/mL
MIC: 12.5

compound: O=c1n(CC#CCN2CCCCCCC2)nc(-c2ccccc2)n1-c1cccc2ccccc12
scaleUnit: µg/mL
MIC: 12

compound: CC1CCCCN1CC#CCn1nc(-c2ccccc2)n(-c2ccccc2)c1=O (stereo not given)
scaleUnit: µg/mL
MIC: 25

compound: O=c1n(CC#CCN2CCCCCCC2)nc(-c2ccccc2)n1-c1ccccc1
scaleUnit: µg/mL
MIC: 12.5

compound: CC(=O)N1CCN(c2ccc(OCC3COC(Cn4ccnc4)(c4ccc(Cl)cc4Cl)O3)cc2)CC1 (stereo not given)
scaleUnit: µg/mL
MIC: 12.5

// for each compound in input: emit MIC
1. CC1CCCC(C)N1CC#CCn1nc(-c2ccc(Cl)cc2)n(-c2ccccc2)c1=O (stereo not given)
2. O=c1n(CC#CCN2CCCCCC2)nc(-c2ccccc2)n1-c1cccc2ccccc12

Reply text:
[25, 25]

Where do the numbers come from? From ChEMBL document CHEMBL3046153.
